FYI, the data here is from ChEMBL document CHEMBL1649412.

- System: A549
- Method: Antiproliferative activity against human A549 cells after 4 days by alamar blue assay
- Format: functional, cell-based
- Test Conditions: A549, 96 h
Attribute Measured: IC50 (µM)

{"Molecule": "O=C(O)c1ccc2c(c1)nc(Nc1cccc(Cl)c1)c1ccncc12", "Tgt": "A549", "Attribute Measured": "IC50", "Unit Spec": "µM", "Assay Result": 3}
{"Molecule": "O=C(O)c1ccc2c(c1)nc(Nc1cccc(F)c1)c1ccncc12", "Tgt": "A549", "Attribute Measured": "IC50", "Unit Spec": "µM", "Assay Result": 16.7}
{"Molecule": "O=C(O)c1ccc2c(c1)nc(Nc1ccc(F)c(Cl)c1)c1ccncc12", "Tgt": "A549", "Attribute Measured": "IC50", "Unit Spec": "µM", "Assay Result": 6.8}

[a] O=C(O)c1ccc2c(c1)nc(NCCc1ccccc1)c1ccncc12
[b] C#Cc1cccc(Nc2nc3cc(C(=O)O)ccc3c3cnccc23)c1
Request: Pick the one with the larger IC50: a vs b Choose, then provide that item's label.
Result: a
